Target: RAW cell miNOS (Mus musculus, UniProt P29477)
Construct: in the presence of LPS to induce NOS; endogenous in cells; host or cells: RAW 264.7 cells, LPS-induced
Test: Raw Cell Nitrite Assay
Format: cell-based
Details: IC50 RAW cell miNOS, RAW 264.7 cells, LPS-induced, L-arginine 30 μM, nitrite production 1 h at 37° C.
Structures can show the parent of a compound that is named as a salt.
measurement-label: IC50 (µM)

[
  {
    "molecule": "NC1=NC(Cc2ccccc2)CCC1 (stereo not shown) [Example 94, Monohydrochloride]",
    "observed": 7.9
  }
]

###

Listed compounds paired with reported IC50
Biological target: human endothelial constitutive NOS (hecNOS) (Homo sapiens, UniProt P29474)
Assay: Citrulline Assay for Nitric Oxide Synthase, hecNOS
Conditions: recombinant human endothelial constitutive NOS, 37° C., 15 minutes, calmodulin 40-100 nM
Description: Citrulline Assay for Nitric Oxide Synthase Nitric oxide synthase activity was measured by monitoring the conversion of L-[2,3-3H]-arginine to L-[2,3-3H]-citrulline (1,2). […] The [3H]-citrulline was separated by chromatography on Dowex 50W X-8 cation exchange resin and radioactivity quantified with a liquid scintillation counter.
Where a name gives a salt, the structure may show the parent alone.
measurement-label: IC50 (µM)

[
  {
    "compound": "N=C1CCCC(CC2CCCCC2)N1 (stereo not drawn) [Example 95, Monohydrochloride]",
    "uom": "µM",
    "observed": 375
  },
  {
    "compound": "C[C@@H]1CC(=N)N[C@H]1Cc1ccccc1 (relative stereo) [Example 64, Monohydrochloride]",
    "uom": "µM",
    "observed": 458
  },
  {
    "compound": "Cl.N=C1CCCCC(Cc2ccccc2)N1 (stereo not drawn) [Example 5, Monohydrochloride]",
    "uom": "µM",
    "observed": 792
  }
]
